Biological target: P1 transporter
Type: cell-based, Trypanosoma brucei
Conditions: inhibition of [3H]adenosine uptake; mean ± SEM, n = 3; read-out: P1 transporter Ki
Experimental: Non-specific association of radiolabel with the cell pellet was determined using an identical incubation in the presence of saturating (1 mM) unlabelled adenosine.
parameter: Ki (µM)

[[record]]
chemical_structure = "Nc1ncnc2c1ccn2[C@@H]1O[C@H](CO)C[C@H]1O"
target_or_system = "P1 transporter"
measurement = 99.9

[[record]]
chemical_structure = "Nc1ncnc2c1c(Br)cn2[C@@H]1O[C@H](CO)C[C@H]1O"
target_or_system = "P1 transporter"
measurement = 9.47


###

Test system: T. brucei BSF s427 wildtype cells
Assay: Growth assays of T. brucei (trypanocidal/trypanostatic effect)
Type: cell-based, Trypanosoma brucei
Conditions: 2xEC50, 12 h, experiment 1
Parameter: AVG of cells/mL. Scope: all listed entries.
parameter: AVG of cells/mL (cells/mL)

[[record]]
molecule = "Nc1ncnc2c1ncn2[C@@H]1O[C@H](CO)C[C@H]1O [Compound 3, cordycepin, reference compound]"
measurement = 195000

[[record]]
molecule = "Nc1ncnc2c1ccn2[C@@H]1O[C@H](CO)C[C@H]1O"
measurement = 152500

[[record]]
molecule = "Nc1ncnc2c1c(Br)cn2[C@@H]1O[C@H](CO)C[C@H]1O"
measurement = 163750

[[record]]
molecule = "Nc1ncnc2c1c(Br)cn2[C@@H]1O[C@H](CO)[C@@H](O)[C@H]1O"
measurement = 185000


###

System: T. b. rhodesiense STIB-900
Assay: microbe, parasite or virus in culture
Assay type: cell-based, Trypanosoma brucei rhodesiense
Settings: Trypanosoma brucei, RHODESIENSE, source data; read-out: T. brucei rhodesiense EC50, Average
Parameter: EC50. Scope: all listed entries.
parameter: EC50

[[record]]
compound = "Nc1ncnc2c1ccn2[C@@H]1O[C@H](CO)C[C@H]1O [Compound 9, 3’-deoxytubercidin]"
measurement = "0.521 nM"

[[record]]
compound = "Nc1ncnc2c1ccn2[C@@H]1O[C@H](CO)[C@@H](O)[C@H]1O [Compound 6, Tubercidin, reference compound]"
measurement = "36 nM"

[[record]]
compound = "Nc1ncnc2c1c(Br)cn2[C@@H]1O[C@H](CO)[C@@H](O)[C@H]1O [Compound 8, 7-bromotubercidin]"
measurement = "120 nM"

[[record]]
compound = "Nc1ncnc2c1c(Br)cn2[C@@H]1O[C@H](CO)C[C@H]1O [Compound 10, 3’-deoxy-7-Br-tubercidin]"
measurement = "0.398 nM"

[[record]]
compound = "Nc1ncnc2c1c(Br)cn2[C@H]1C[C@H](O)[C@@H](CO)O1 [Compound 12, 7-Br-2′-deoxy-TUB]"
measurement = "120 nM"


###

Assay: Cytotoxicity on MRC-5 fibroblasts (resazurin)
Type: cell-based, human
Conditions: human, MRC-5SV2 human embryonic lung fibroblasts, source data; read-out: MRC-5 EC50, single measurements
parameter: EC50 at 3 day

[[record]]
chemical_structure = "Nc1ncnc2c1c(Br)cn2[C@H]1C[C@H](O)[C@@H](CO)O1"
parameter = "EC50 at 3 day"
measurement = "6.83 µM"

[[record]]
chemical_structure = "Nc1ncnc2c1ccn2[C@@H]1O[C@H](CO)C[C@H]1O"
parameter = "EC50 at 3 day"
measurement = "> 64 µM"

[[record]]
chemical_structure = "Nc1ncnc2c1ccn2[C@H]1C[C@H](O)[C@@H](CO)O1"
parameter = "EC50 at 3 day"
measurement = "> 64 µM"


###

Molecular target: P2 transporter (TbAT1) (Trypanosoma brucei brucei, UniProt Q9Y0I0)
Sequence (Q9Y0I0 entry or part of it): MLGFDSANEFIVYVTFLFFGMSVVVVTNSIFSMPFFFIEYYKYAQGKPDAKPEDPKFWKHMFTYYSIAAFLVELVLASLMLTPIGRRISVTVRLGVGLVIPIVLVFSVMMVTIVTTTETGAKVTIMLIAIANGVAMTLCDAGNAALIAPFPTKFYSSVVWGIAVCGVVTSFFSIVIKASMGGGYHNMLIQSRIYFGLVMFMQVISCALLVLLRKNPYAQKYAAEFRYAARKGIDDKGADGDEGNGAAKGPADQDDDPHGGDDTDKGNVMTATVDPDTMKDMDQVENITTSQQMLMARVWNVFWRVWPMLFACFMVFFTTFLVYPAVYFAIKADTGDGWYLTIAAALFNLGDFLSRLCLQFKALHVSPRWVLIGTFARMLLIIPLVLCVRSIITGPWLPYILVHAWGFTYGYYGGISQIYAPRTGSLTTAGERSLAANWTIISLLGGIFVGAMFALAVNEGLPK
Experiment: cell-based
Details: in comparison to adenosine
Parameter: P2 transporter δ(ΔG^0). Scope: all listed entries.
parameter: P2 transporter δ(ΔG^0)

[[record]]
compound = "Nc1ncnc2c1ncn2[C@@H]1O[C@H](CO)C[C@H]1O [Compound 3, cordycepin, reference compound]"
measurement = "-0.645 kcal/mol"

[[record]]
compound = "Nc1ncnc2c1c(Br)cn2[C@@H]1O[C@H](CO)C[C@H]1O"
measurement = "-0.024 kcal/mol"

[[record]]
compound = "Nc1ncnc2c1ccn2[C@@H]1O[C@H](CO)C[C@H]1O"
measurement = "-0.741 kcal/mol"

[[record]]
compound = "Nc1ncnc2c1c(Br)cn2[C@@H]1O[C@H](CO)[C@@H](O)[C@H]1O"
measurement = "0.789 kcal/mol"


###

Parameter: RF (TbAT1-KO). Scope: all listed entries.
Test system: TbAT1-KO: T. brucei cell line lacking the TbAT1(P2) transporter gene
Test: microbe, parasite or virus in culture
Assay type: cell-based, Trypanosoma brucei brucei
Conditions: resistance factor: ratio of EC50 of resistant and Lister 427WT
Marks after values point to notes of the source that are not given here.
parameter: RF (TbAT1-KO)

[[record]]
compound = "Nc1ncnc2c1ccn2[C@H]1C[C@H](O)[C@@H](CO)O1 [Compound 11, 2′-Deoxy-TUB]"
measurement = "0.45**"

[[record]]
compound = "CC[n+]1c(-c2ccccc2)c2cc(N/N=N/c3cccc(C(=N)N)c3)ccc2c2ccc(N)cc21 [Isometamidium, reference compound]"
measurement = 1.2

[[record]]
compound = "N=C(N)c1ccc(/N=N/Nc2ccc(C(=N)N)cc2)cc1 [Diminazene, reference compound]"
measurement = "10.6***"

[[record]]
compound = "N=C(N)c1ccc(OCCCCCOc2ccc(C(=N)N)cc2)cc1 [Pentamidine, reference compound]"
measurement = "1.8**"


###

Parameter: P2 transporter ΔG^0. Scope: all listed entries.
Target: P2 transporter (TbAT1) (Trypanosoma brucei brucei, UniProt Q9Y0I0)
Assay: cell-based
Conditions: Gibbs free energy from −RT ln(Ki)
parameter: P2 transporter ΔG^0 (kcal/mol)

[[record]]
compound = "Nc1ncnc2c1c(Br)cn2[C@@H]1O[C@H](CO)[C@@H](O)[C@H]1O"
parameter = "P2 transporter ΔG^0"
measurement = -7.77

[[record]]
compound = "Nc1ncnc2c1ccn2[C@@H]1O[C@H](CO)C[C@H]1O"
parameter = "P2 transporter ΔG^0"
measurement = -9.3

[[record]]
compound = "Nc1ncnc2c1c(Br)cn2[C@@H]1O[C@H](CO)C[C@H]1O"
parameter = "P2 transporter ΔG^0"
measurement = -8.58

[[record]]
compound = "Nc1ncnc2c1ncn2[C@@H]1O[C@H](CO)C[C@H]1O [Compound 3, cordycepin, reference compound]"
parameter = "P2 transporter ΔG^0"
measurement = -9.2


###

Molecular target: P1 transporter
Assay type: cell-based, Trypanosoma brucei
Settings: source data; read-out: P1 transporter Ki, AVG
pKi: −log10 of the molar value.
parameter: pKi

[[record]]
molecule = "Nc1ncnc2c1ccn2[C@@H]1O[C@H](CO)C[C@H]1O [Compound 9, 3’-deoxytubercidin]"
measurement = 3.97

[[record]]
molecule = "Nc1ncnc2c1c(Br)cn2[C@@H]1O[C@H](CO)C[C@H]1O [Compound 10, 3’-deoxy-7-Br-tubercidin]"
measurement = 5.00

[[record]]
molecule = "Nc1ncnc2c1c(Br)cn2[C@@H]1O[C@H](CO)[C@@H](O)[C@H]1O [Compound 8, 7-bromotubercidin]"
measurement = 5.15


###

Test: Cytotoxicity on MRC-5 fibroblasts (resazurin)
Assay type: cell-based, human
Conditions: human, MRC-5SV2 human embryonic lung fibroblasts, cytotoxicity in human MRC-5 fibroblasts; mean and SEM; read-out: MRC-5 EC50
Parameter: EC50 at 3 day. Scope: all listed entries.
parameter: EC50 at 3 day

[[record]]
compound = "Nc1ncnc2c1ccn2[C@@H]1O[C@H](CO)C[C@H]1O [Compound 9, 3’-deoxytubercidin]"
measurement = "> 64 µM"

[[record]]
compound = "Nc1ncnc2c1ccn2[C@H]1C[C@H](O)[C@@H](CO)O1 [Compound 11, 2′-Deoxy-TUB]"
measurement = "> 64 µM"

[[record]]
compound = "Nc1ncnc2c1c(Br)cn2[C@@H]1O[C@H](CO)C[C@H]1O [Compound 10, 3’-deoxy-7-Br-tubercidin]"
measurement = "15 µM"


###

Biological target: Lister 427WT T. b. brucei
Assay: Adenosine deaminase susceptibility (drug sensitivity with/without 2 µM deoxycoformycin)
Type: cell-based, Trypanosoma brucei brucei
Details: DCF -; read-out: EC50 Reported value
pEC50: −log10 of the molar value.
parameter: pEC50

[[record]]
chemical_structure = "Nc1ncnc2c1c(Br)cn2[C@@H]1O[C@H](CO)C[C@H]1O"
parameter = "pEC50"
measurement = 8.70


###

Parameter: AVG of cells/mL. Scope: all listed entries.
System: T. brucei BSF s427 wildtype cells
Experiment: Growth assays of T. brucei (trypanocidal/trypanostatic effect)
Type: cell-based, Trypanosoma brucei
Details: 5xEC50, 4 h, experiment 1
parameter: AVG of cells/mL (cells/mL)

[[record]]
compound = "Nc1ncnc2c1ncn2[C@@H]1O[C@H](CO)C[C@H]1O [Compound 3, cordycepin, reference compound]"
unit_info = "cells/mL"
measurement = 118750

[[record]]
compound = "Nc1ncnc2c1c(Br)cn2[C@@H]1O[C@H](CO)C[C@H]1O [Compound 10, 3’-deoxy-7-Br-tubercidin]"
unit_info = "cells/mL"
measurement = 152500

[[record]]
compound = "Nc1ncnc2c1ccn2[C@@H]1O[C@H](CO)C[C@H]1O [Compound 9, 3’-deoxytubercidin]"
unit_info = "cells/mL"
measurement = 138750

[[record]]
compound = "Nc1ncnc2c1c(Br)cn2[C@@H]1O[C@H](CO)[C@@H](O)[C@H]1O [Compound 8, 7-bromotubercidin]"
unit_info = "cells/mL"
measurement = 138750

